From: patent US10494364B2

measurement-description: Pharmacokinetic test in SD rats (iv and oral gavage), plasma by LC/MS/MS
Assay type: in vivo
condition-notes: rat, male SD rats, iv 1 mg/kg, read-out: Vss
parameter: Vd (L/kg)

Before answering, review these 2 worked examples.
CCOc1cc(-c2ccc3cc(C(=O)NC4(C(=O)NC5(C#N)CC5)CCC(F)(F)CC4)oc3c2)ccc1-n1cncn1 :: 0.69
N#CC1(NC(=O)C2(NC(=O)c3cc4ccc(-c5ccc(-n6cncn6)c(OC(F)F)c5)cc4o3)CCC(F)(F)CC2)CC1 :: 1.2

I. Cc1cc(-c2ccc3cc(C(=O)NC4(C(=O)NC5(C#N)CC5)CCC(F)(F)CC4)oc3c2)ccc1-n1cncn1
II. N#CC1(NC(=O)C2(NC(=O)c3cc4ccc(-c5ccc(-n6cncn6)cc5)cc4o3)CCC(F)(F)CC2)CC1
Prompt: Please indicate which entry, I or II , has the lower recorded Vd value. Please reply using the label of the selected record.
Response: II
(II: 1.09 L/kg, I: 2.27 L/kg)

###

measurement-description: Pharmacokinetic test in SD rats (iv and oral gavage), plasma by LC/MS/MS
Format: in vivo
condition-notes: rat, male SD rats, po 5 mg/kg
parameter: Tmax (h)

Before answering, review these 3 worked examples.
N#CC1(NC(=O)C2(NC(=O)c3cc4ccc(-c5ccc(-n6ccnn6)cc5)cc4o3)CCC(F)(F)CC2)CC1 [Example 18] :: 3.33
CCOc1cc(-c2ccc3cc(C(=O)NC4(C(=O)NC5(C#N)CC5)CCC(F)(F)CC4)oc3c2)ccc1-n1cncn1 [Example 54] :: 3
N#CC1(NC(=O)C2(NC(=O)c3cc4ccc(-c5ccc(-n6cncn6)cc5)cc4o3)CCC(F)(F)CC2)CC1 [Example 12] :: 4.67

1. N#CC1(NC(=O)C2(NC(=O)c3cc4ccc(-c5ccc(-n6cncn6)c(OC(F)F)c5)cc4o3)CCC(F)(F)CC2)CC1 [Example 53]
2. Cc1cc(-c2ccc3cc(C(=O)NC4(C(=O)NC5(C#N)CC5)CCC(F)(F)CC4)oc3c2)ccc1-n1cncn1 [Example 43]
Prompt: Would you let me know which has the greater Tmax value, 1 or 2 ? Please reply using the label of the selected record.
Response: 2
(2: 4 h, 1: 2.67 h)

###

measurement-description: Pharmacokinetic test in SD rats (iv and oral gavage), plasma by LC/MS/MS
Assay type: in vivo
condition-notes: rat, male SD rats, iv 1 mg/kg, read-out: AUClast h * ng/ml
parameter: AUC(0-t) (ng·h/mL)

Before answering, review these 3 worked examples.
N#CC1(NC(=O)C2(NC(=O)c3cc4ccc(-c5ccc(-n6cncn6)c(OC(F)F)c5)cc4o3)CCC(F)(F)CC2)CC1 [Example 53] :: 5470
Cc1cc(-c2ccc3cc(C(=O)NC4(C(=O)NC5(C#N)CC5)CCC(F)(F)CC4)oc3c2)ccc1-n1cncn1 [Example 43] :: 3800
N#CC1(NC(=O)C2(NC(=O)c3cc4ccc(-c5ccc(-n6cncn6)cc5)cc4o3)CCC(F)(F)CC2)CC1 [Example 12] :: 8150

a. N#CC1(NC(=O)C2(NC(=O)c3cc4ccc(-c5ccc(-n6ccnn6)cc5)cc4o3)CCC(F)(F)CC2)CC1 [Example 18]
b. CCOc1cc(-c2ccc3cc(C(=O)NC4(C(=O)NC5(C#N)CC5)CCC(F)(F)CC4)oc3c2)ccc1-n1cncn1 [Example 54]
Prompt: Please indicate which entry, a or b , has the lower recorded AUC(0-t) value. Please reply using the label of the selected record.
Response: a
(a: 3210 ng·h/mL, b: 9280 ng·h/mL)
